Parameter: protein stability index. Scope: all listed entries.
system: Saccharomyces cerevisiae; experiment: protein stability index of tFT-peptide fusion (C-terminal peptide) (PSI (0-1 scale)); higher = more stable (slower turnover); details: genetic background: das1 deletion; temperature: 37 C;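 further: PSI is a weighted mean of sequencing reads over stability bins, variants kept only with over 10 reads, mCherry proximal and sfGFP distal, peptide attached via GGGS linker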
measured.quantity: protein stability index

{"sequence.entry": "ALVWYSLSIIVN", "measured.quantity": "protein stability index", "reported.measurement": 0.0682}
{"sequence.entry": "ISVSVVFFVLRF", "measured.quantity": "protein stability index", "reported.measurement": 0.429}
{"sequence.entry": "SASPFYLPPPPV", "measured.quantity": "protein stability index", "reported.measurement": 0.735}
{"sequence.entry": "WLVIWPRKLSTV", "measured.quantity": "protein stability index", "reported.measurement": 0.618}
{"sequence.entry": "GGVFYVFFVFVG", "measured.quantity": "protein stability index", "reported.measurement": 0.425}
{"sequence.entry": "KAEKNSKKTSTE", "measured.quantity": "protein stability index", "reported.measurement": 0.682}
{"sequence.entry": "VFVGWVLCVVGG", "measured.quantity": "protein stability index", "reported.measurement": 0.276}
{"sequence.entry": "ARALLGVGWYWV", "measured.quantity": "protein stability index", "reported.measurement": 0.761}
{"sequence.entry": "MALAVRVVYCGA", "measured.quantity": "protein stability index", "reported.measurement": 0.44}
{"sequence.entry": "FFACSLLFVLVF", "measured.quantity": "protein stability index", "reported.measurement": 0.27}
{"sequence.entry": "FLCLLASFVVCF", "measured.quantity": "protein stability index", "reported.measurement": 0.384}
{"sequence.entry": "SSGSLLLPRFLT", "measured.quantity": "protein stability index", "reported.measurement": 0.734}
{"sequence.entry": "TGYRYVGRFFVV", "measured.quantity": "protein stability index", "reported.measurement": 0.691}
{"sequence.entry": "GGGGGGRWGRLC", "measured.quantity": "protein stability index", "reported.measurement": 0.757}
{"sequence.entry": "SWVVLVSFLSWR", "measured.quantity": "protein stability index", "reported.measurement": 0.429}
{"sequence.entry": "VWFGGFVCSVLG", "measured.quantity": "protein stability index", "reported.measurement": 0.448}
{"sequence.entry": "VFHMFGWCGGAR", "measured.quantity": "protein stability index", "reported.measurement": 0.77}
{"sequence.entry": "KLALVYLLIRGL", "measured.quantity": "protein stability index", "reported.measurement": 0.568}
{"sequence.entry": "GCYWPKTLGILC", "measured.quantity": "protein stability index", "reported.measurement": 0.568}
